test: amyloid nucleation score (Sup35N fusion, yeast selection) (log enrichment); library NNK3; higher = more nucleation; inactive = no reads after selection;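 further: zero at mode of non-aggregating sequences after 7 days selection at 30°C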
ASSAY_READOUT: amyloid nucleation score

Item HDRDHDMINSFIAFRQYWPW : provide amyloid nucleation score
0.339

Tell me measured amyloid nucleation score for CNIVSMFGCSGVMMACAAVV please.
inactive

For the substance AWTIRGQA , give its reported amyloid nucleation score.
inactive

Report amyloid nucleation score, nothing else, for this substance: LWIVLQVHSFDVRFAQGFHI
0.613

Using known records, supply amyloid nucleation score for VISVTRSYSHTYK
inactive

Others:
Specify measured amyloid nucleation score for LVICKNINKLISWLSDYSFA .
inactive

Name the recorded amyloid nucleation score of the item RCYFKYP in your answer.
1.32

Tell me its amyloid nucleation score given LYGGTAFLLSFCVAE as the entry.
inactive

Please list amyloid nucleation score recorded for the substance AKFSGVLKAYAVREATYCLG
inactive

###

assay: amyloid nucleation score (Sup35N fusion, yeast selection) (log enrichment); library NNK1; higher = more nucleation; inactive = no reads after selection
// bucketize amyloid nucleation score: low range: < -0.02; mid range: ≥ -0.02 and < 0.4; high range: ≥ 0.4

For the record TYARLLNCSAYSTTF , report the class its amyloid nucleation score corresponds to.
mid range

Assign a category based on measured amyloid nucleation score for LFIRYALSFESMWL and give only the class name.
high range

GET /class?item= YFWMIPMTGEVHNCPDLAPK
mid range

Where would HRTDYENFPSSKSRRMLVRV land among the classes by reported amyloid nucleation score?
high range

Hi there! Could you help me figure out the category for EGLNNSLSSYTKDWAQVVLN please?
low range

Categorize the following entry: LLVCSKRSGLVSLLLVIYAF
low range

Tag the class for RSLFLDCS
low range

Field: class (amyloid nucleation score) — entry: VIVCIEAAAETYSTGQSLDA
low range

Band assignment needed for KDLEPVSARMFLLLLICLA please.
mid range

// bin(item) where item = DKYTARDVSKRT
high range

Hello team, could you let me know which band the following substance falls into: SKAKYGESSVWRVGLMGCF
low range

Which class is correct for the following substance? YPCHSREMHYCREWVRDLST
low range

Form: Item = VFNHTVPQSIRFYTYNRSSR ; Class = ?
high range

Kindly state the category for this substance: ILRRRMHDG
mid range

Pick a category. Item: RPTLDVIRNCRVDFAEKGGN
high range

Could you place SLVSGSVGCLGRYQFRESKP in its proper category? Many thanks.
high range

// bin(item) where item = SNVVNFDNNEDYLDTCRYLI
high range

For LPFMHYYHSGY , which amyloid nucleation score bin applies?
low range

Textbook exercise: identify the category of the substance given here, LVVLLIRTNCVKRKEFGERA , according to its measured value.
low range

Class for CTEFRFF ?
mid range

Which class holds HISLHYYKICNRFDLYNKDS ?
high range

Which bin should I file TFSLCKWVHSANKGLVQMTF under?
mid range

Hey, which category is FLMKMKMSVFVLEYSILECM in, do you know?
low range

# bin lookup: classify NLMEKRSLRAIRWIVRSWAG by its amyloid nucleation score
high range

Where would TGLLLLIRNICYCLNLQLWG land among the classes by reported amyloid nucleation score?
mid range

Note: place this substance into its band. Item: GLVFWNIYCRNFYLL
high range

Category lookup for the substance ERLFELKCPNFCAELGSDS
mid range
